- System: HepG2
- PROCEDURE TEXT: Inhibition of cell proliferation of human HepG2 cells at 30 ug/mL after 48 hrs by Sulforhodamine B assay
- Type: functional
- ASSAY CONTEXT: HepG2, 48 h

MOLECULE	BOUND TYPE	inhibition at 30 µg/mL (%)
O=C(O)CCC[C@H]1[C@H]2CCCN3CCC[C@@H](CN1C(=O)c1ccc(F)c([N+](=O)[O-])c1)[C@@H]23	=	7.7
O=C(O)CCC[C@H]1[C@H]2CCCN3CCC[C@@H](CN1C(=O)OCc1ccccc1)[C@@H]23	=	8.4
O=C(O)CCC[C@H]1[C@H]2CCCN3CCC[C@@H](CN1C(=O)c1ccc(F)cc1)[C@@H]23	<	5
CC[C@@]1(O)C(=O)OCc2c1cc1n(c2=O)Cc2cc3cc(O)ccc3nc2-1 [HYDROXYCAMPTOTHECIN]	=	92
